Where do these numbers come from? They come from paper PMC5700166.

The entries below are paired with their reported binding signal.
- system.tested: GST-Aq-NF-kB (Amphimedon queenslandica, UniProt A9Y5G7 2-389)
- Sequence: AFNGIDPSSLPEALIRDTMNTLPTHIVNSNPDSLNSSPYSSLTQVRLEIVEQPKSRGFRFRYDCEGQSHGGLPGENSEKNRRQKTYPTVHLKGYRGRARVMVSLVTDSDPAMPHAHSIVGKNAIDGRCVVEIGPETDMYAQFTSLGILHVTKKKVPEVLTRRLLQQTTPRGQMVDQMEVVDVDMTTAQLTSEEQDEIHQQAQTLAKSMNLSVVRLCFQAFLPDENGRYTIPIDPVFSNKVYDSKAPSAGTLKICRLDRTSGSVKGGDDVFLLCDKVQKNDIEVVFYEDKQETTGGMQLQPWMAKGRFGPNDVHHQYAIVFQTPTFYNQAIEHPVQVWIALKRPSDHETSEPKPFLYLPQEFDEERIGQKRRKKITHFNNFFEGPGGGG
- experiment: protein-binding microarray (PBM); PBM: ~300 nM protein, 6 mM HEPES pH 7.8, 80 mM KCl, 0.5 mM EDTA, 0.5 mM EGTA, 6% glycerol, 35 ng/ul poly-dIdC, 1% milk, 1 h, room temperature; Ap Aiptasia and Nv Nematostella (sea anemones) / Co Capsaspora / Aq Amphimedon (sponge) / Dm Drosophila / Hu human; RHD is the Rel homology domain; high values mean tight binding
- applied.conditions: dsDNA, one strand shown

- primary.sequence: "CCGATTAACATCAGGAATGTCCATGATGTTAATCGGGTCTTGATTCGCTTGACGCTGCTG"
  system.tested: "GST-Aq-NF-kB (Amphimedon queenslandica, UniProt A9Y5G7 2-389)"
  uom: "z-score"
  binding signal: 1.06
- primary.sequence: "CCGATTAACATCAGGGGTTACCCTGATGTTAATCGGGTCTTGATTCGCTTGACGCTGCTG"
  system.tested: "GST-Aq-NF-kB (Amphimedon queenslandica, UniProt A9Y5G7 2-389)"
  uom: "z-score"
  binding signal: 7.71
- primary.sequence: "CCGATTAACATCAGAGTTTCCCATGATGTTAATCGGGTCTTGATTCGCTTGACGCTGCTG"
  system.tested: "GST-Aq-NF-kB (Amphimedon queenslandica, UniProt A9Y5G7 2-389)"
  uom: "z-score"
  binding signal: 3.07
- primary.sequence: "CCGATTAACATCAAGGAACCCCCTGATGTTAATCGGGTCTTGATTCGCTTGACGCTGCTG"
  system.tested: "GST-Aq-NF-kB (Amphimedon queenslandica, UniProt A9Y5G7 2-389)"
  uom: "z-score"
  binding signal: 6.6
- primary.sequence: "CCGATTAACATCAGGGAAAGACCTGATGTTAATCGGGTCTTGATTCGCTTGACGCTGCTG"
  system.tested: "GST-Aq-NF-kB (Amphimedon queenslandica, UniProt A9Y5G7 2-389)"
  uom: "z-score"
  binding signal: 7.5
- primary.sequence: "CCGATTAACATCAGGGGGATCACTGATGTTAATCGGGTCTTGATTCGCTTGACGCTGCTG"
  system.tested: "GST-Aq-NF-kB (Amphimedon queenslandica, UniProt A9Y5G7 2-389)"
  uom: "z-score"
  binding signal: 5.38
- primary.sequence: "CCGATTAACATCAGAGTCCCCCCTGATGTTAATCGGGTCTTGATTCGCTTGACGCTGCTG"
  system.tested: "GST-Aq-NF-kB (Amphimedon queenslandica, UniProt A9Y5G7 2-389)"
  uom: "z-score"
  binding signal: 4.89
- primary.sequence: "CCGATTAACATCAAAAATGCCCCTGATGTTAATCGGGTCTTGATTCGCTTGACGCTGCTG"
  system.tested: "GST-Aq-NF-kB (Amphimedon queenslandica, UniProt A9Y5G7 2-389)"
  uom: "z-score"
  binding signal: 6.07
- primary.sequence: "CCGATTAACATCAAATGTCCCCCTGATGTTAATCGGGTCTTGATTCGCTTGACGCTGCTG"
  system.tested: "GST-Aq-NF-kB (Amphimedon queenslandica, UniProt A9Y5G7 2-389)"
  uom: "z-score"
  binding signal: 5.64
